compounds and their reported IC50
molecular target: hMeprin α (Homo sapiens, UniProt Q16819); experiment: Enzymatic assay, quenched peptide substrate cleavage, method B; format: biochemical; conditions: geometric mean (geometric SD factor in parentheses), read-out: Meprin alpha IC50
Sequence (Q16819 66-746): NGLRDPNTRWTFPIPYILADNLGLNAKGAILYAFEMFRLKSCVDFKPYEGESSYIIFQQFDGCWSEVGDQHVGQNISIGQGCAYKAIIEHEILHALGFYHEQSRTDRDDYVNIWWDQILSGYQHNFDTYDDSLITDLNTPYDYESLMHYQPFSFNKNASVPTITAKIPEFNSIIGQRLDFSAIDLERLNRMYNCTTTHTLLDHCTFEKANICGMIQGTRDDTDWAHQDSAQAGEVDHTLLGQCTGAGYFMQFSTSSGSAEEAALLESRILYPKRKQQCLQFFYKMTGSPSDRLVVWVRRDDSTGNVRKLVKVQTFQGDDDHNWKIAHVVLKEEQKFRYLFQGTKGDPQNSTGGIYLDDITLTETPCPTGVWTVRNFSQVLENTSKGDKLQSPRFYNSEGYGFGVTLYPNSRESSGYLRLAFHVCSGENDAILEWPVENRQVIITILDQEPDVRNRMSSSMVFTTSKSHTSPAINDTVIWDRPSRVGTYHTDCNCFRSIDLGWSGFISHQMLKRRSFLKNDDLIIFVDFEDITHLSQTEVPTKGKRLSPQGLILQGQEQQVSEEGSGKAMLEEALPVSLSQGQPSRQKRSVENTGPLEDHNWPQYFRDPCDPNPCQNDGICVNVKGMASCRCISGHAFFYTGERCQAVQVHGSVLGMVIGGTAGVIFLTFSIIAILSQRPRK

O=C(Cc1c(-c2ccc3c(c2)OCO3)n[nH]c1-c1cccc(C(=O)O)c1)NO; 3 nM
O=C(Cn1c(-c2cccc(C(=O)O)c2)nc2ccccc21)NO; 63 nM
O=C(Cc1c(-c2ccccc2)nn(Cc2ccc(C(=O)O)cc2)c1-c1ccccc1)NO; 0.45 nM

Now for a further compound.
IC50 for O=C(Cc1c([C@@H]2CCCC[C@@H]2C(=O)O)n[nH]c1-c1ccccc1)NO is 0.34 nM
